Data origin, for the record: FireProtDB (doi:10.1002/cbic.201402128)

B1: Haloalkane dehalogenase, D4Z2G1 (parent)
chain: MSLGAKPFGEKKFIEIKGRRMAYIDEGTGDPILFQHGNPTSSYLWRNIMPHCAGLGRLIACDLIGMGDSDKLDPSGPERYAYAEHRDYLDALWEALDLGDRVVLVVHDWGSALGFDWARRHRERVQGIAYMEAIAMPIEWADFPEQDRDLFQAFRSQAGEELVLQDNVFVEQVLPGLILRPLSEAEMAAYREPFLAAGEARRPTLSWPRQIPIAGTPADVVAIARDYAGWLSESPIPKLFINAEPGALTTGRMRDFCRTWPNQTEITVAGAHFIQEDSPDEIGAAIAAFVRRLRPA

- Variants of: B1
- Run Conditions: Sphingobium indicum (strain DSM 16413 / CCM 7287 / MTCC 6362 / UT26 / NBRC 101211 / UT26S); pH 7.5; Thermal; fluorescence; Na-Hepes 50 mM; reversible: no; structure 1MJ5; whole UniProt chain shown
Please use class 1 whenever Tm is not below 50 °C, and class 0 whenever it is.

Check this variant for Tm at or above 50 °C: `A247F`
class 1

Repeat with `A81P`
class 0
